test system: HepG2.2.15 cells; experiment: Cytotoxicity determination in HepG2.2.15 cells (CCK-8); format: cell-based; details: HepG2.2.15 cells, 5,000 cells/well, 6 days of compound treatment, CCK-8 absorbance 450 nm, highest concentration 100 uM
# label = label 1 if CC50 < 10 µM else label 0

{"molecule": "COC(=O)C1=C(C2CCc3nn(CCC(=O)O)cc3C2)NC(c2nccs2)=NC1c1ccc(F)cc1Br (single isomer, unassigned) [Compound 48b]", "assignedLabel": "label 0"}
{"molecule": "COC(=O)C1=C(C2CCc3nn(CCC(=O)O)cc3C2)NC(c2nccs2)=NC1c1ccc(F)cc1Cl (single isomer, unassigned) [Compound 47b]", "assignedLabel": "label 0"}
{"molecule": "COC(=O)C1=C(C2CCc3[nH]ncc3C2)NC(c2nccs2)=NC1c1ccc(F)c(F)c1Cl (single isomer, unassigned) [Compound 65b]", "assignedLabel": "label 1"}
{"molecule": "CCOC(=O)C1=C(C2CCc3nn(C(C)CC(=O)O)cc3C2)NC(c2nccs2)=NC1c1ccc(F)c(F)c1Cl (single isomer, unassigned) [Compound 52d]", "assignedLabel": "label 0"}
{"molecule": "CCOC(=O)C1=C(C2CCc3nn(CCCC(=O)O)cc3C2)NC(c2nccs2)=NC1c1ccc(F)c(F)c1Cl (single isomer, unassigned) [Compound 50c]", "assignedLabel": "label 0"}
{"molecule": "CCOC(=O)C1=C(C2CCc3nc(CCC(=O)O)oc3C2)NC(c2nccs2)=NC1c1ccc(F)c(F)c1Cl (single isomer, unassigned) [Compound 58d]", "assignedLabel": "label 0"}
{"molecule": "CCOC(=O)C1=C(C2CCc3nn(CCC(=O)O)cc3C2)NC(c2nccs2)=NC1c1ccc(F)c(F)c1C (single isomer, unassigned) [Compound 35c]", "assignedLabel": "label 0"}
{"molecule": "COC(=O)C1=C(C2CCc3nn(CCC(=O)O)cc3C2)NC(c2nccs2)=NC1c1ccc(F)cc1Cl (single isomer, unassigned) [Compound 47c]", "assignedLabel": "label 0"}
{"molecule": "CCOC(=O)C1=C(C2Cc3cn(CCC(=O)O)nc3C(C)(C)C2)NC(c2nccs2)=NC1c1ccc(F)c(F)c1Cl (centres unmarked) [Compound 55c]", "assignedLabel": "label 1"}
{"molecule": "CCOC(=O)C1=C(C2CCc3nn(CCC(=O)O)cc3C2)NC(c2nccs2)=NC1c1ccc(F)cc1C (single isomer, unassigned) [Compound 38c]", "assignedLabel": "label 0"}
{"molecule": "COC(=O)C1=C(C2CCc3nn(CCCC(=O)O)cc3C2)NC(c2nccs2)=NC1c1ccc(F)c(F)c1Cl (single isomer, unassigned) [Compound 74c]", "assignedLabel": "label 0"}
{"molecule": "COC(=O)C1=C(C2CCc3nc([C@H]4C[C@H](C(=O)O)C4)sc3C2)NC(c2nccs2)=NC1c1ccc(F)c(F)c1Cl (single isomer, unassigned) [Compound 68c]", "assignedLabel": "label 1"}
{"molecule": "CCOC(=O)C1=C(C2CCc3nn(CCC(=O)O)cc3C2)NC(c2nccs2)=NC1c1cccc(F)c1C (single isomer, unassigned) [Compound 41c]", "assignedLabel": "label 0"}
{"molecule": "COC(=O)C1=C(C2CCc3nc([C@H]4CC[C@H](C(=O)O)CC4)oc3C2)NC(c2nccs2)=NC1c1ccc(F)c(F)c1Cl (single isomer, unassigned) [Compound 86d]", "assignedLabel": "label 1"}
{"molecule": "CCOC(=O)C1=C(C2CCc3nc(CCC(=O)O)sc3C2)NC(c2nccs2)=NC1c1ccc(F)c(F)c1Cl (single isomer, unassigned) [Compound 60c]", "assignedLabel": "label 1"}
{"molecule": "CCOC(=O)C1=C(C2CCc3nn(CC(=O)O)cc3C2)NC(c2nccs2)=NC1c1ccc(F)c(F)c1Cl (single isomer, unassigned) [Compound 49c]", "assignedLabel": "label 0"}
{"molecule": "CCOC(=O)C1=C(C2CCc3nn(CCC(=O)O)cc3C2)NC(c2nccs2)=NC1c1ccc(F)cc1Cl (single isomer, unassigned) [Compound 37d]", "assignedLabel": "label 0"}
{"molecule": "CCOC(=O)C1=C(C2CCc3nn(CCC(=O)O)cc3C2)NC(c2nccs2)=NC1c1cccc(F)c1Br (single isomer, unassigned) [Compound 42d]", "assignedLabel": "label 0"}
{"molecule": "COC(=O)C1=C(C2CCc3nn(CCC(=O)O)cc3C2)NC(c2nccs2)=NC1c1ccc(F)c(F)c1Cl (single isomer, unassigned) [Compound 70d]", "assignedLabel": "label 0"}
{"molecule": "COC(=O)C1=C(C2CCc3nn(CCC(=O)O)cc3C2)NC(c2nccs2)=NC1c1ccc(F)cc1Br (single isomer, unassigned) [Compound 48d]", "assignedLabel": "label 0"}
{"molecule": "COC(=O)C1=C(C2CCc3nc([C@H]4CC[C@H](C(=O)O)CC4)oc3C2)NC(c2nccs2)=NC1c1ccc(F)c(F)c1Cl (single isomer, unassigned) [Compound 86b]", "assignedLabel": "label 1"}
{"molecule": "CCOC(=O)C1=C(C2CCc3nn(C(C)CC(=O)O)cc3C2)NC(c2nccs2)=NC1c1ccc(F)c(F)c1Cl (single isomer, unassigned) [Compound 52b]", "assignedLabel": "label 1"}
{"molecule": "CCOC(=O)C1=C(C2CCc3nn(CCC(=O)O)cc3C2)NC(c2nccs2)=NC1c1cccc(F)c1C (single isomer, unassigned) [Compound 41b]", "assignedLabel": "label 1"}

* * *

Each item that follows carries a reported CC50 at 6 days.
assay: Cytotoxicity determination in HepG2.2.15 cells (CCK-8); assay type: cell-based; settings: human, HepG2.2.15 cells, HepG2.2.15 cells, 5,000 cells/well, 6 days of compound treatment, CCK-8 absorbance 450 nm, highest concentration 100 uM
measuredQuantity: CC50 at 6 days (µM)

{"compound": "COC(=O)C1=C(C2CCc3nn([C@H]4C[C@@H](C(=O)O)C4)cc3C2)NC(c2nccs2)=NC1c1ccc(F)c(F)c1Cl (stereo partly shown) [Compound 96d]", "result": 19.3}
{"compound": "CCOC(=O)C1=C(C2CCc3nn(CCC(=O)O)cc3C2)NC(c2nccs2)=NC1c1ccc(F)cc1Cl (single isomer, unassigned) [Compound 37b]", "result": 19.6}
{"compound": "CCOC(=O)C1=C(C2CCc3nn(CCC(=O)O)cc3C2)NC(c2nccs2)=NC1c1ccc(F)c(F)c1Br (single isomer, unassigned) [Compound 36d]", "result": 9.7}
{"compound": "CCOC(=O)C1=C(C2CCc3nn(CCC(=O)O)cc3C2)NC(c2nccs2)=NC1c1ccc(F)c(F)c1C (single isomer, unassigned) [Compound 35b]", "result": 20.7}

* * *

test system: HBV; assay: HBV inhibitory activity in HepG2.2.15 cells (HBV DNA in culture medium by q-PCR); assay type: cell-based; conditions: HepG2.2.15 cells, 40,000 cells/well, 6 days of compound treatment, HBV DNA in culture medium by q-PCR, highest concentration 10 uM; read-out: EC50
Each item that follows carries a reported EC50.

{"compound": "CCOC(=O)C1=C(C2CCc3cn(CCC(=O)O)nc3C2)NC(c2nccs2)=NC1c1ccc(F)c(F)c1Cl (single isomer, unassigned) [Compound 61a]", "measurementUnit": "nM", "comparisonOperator": "=", "EC50": 61.2}
{"compound": "CCOC(=O)C1=C(C2CCc3sc(CCC(=O)O)nc3C2)NC(c2nccs2)=NC1c1ccc(F)c(F)c1Cl (single isomer, unassigned) [Compound 59f]", "measurementUnit": "nM", "comparisonOperator": "=", "EC50": 210}
{"compound": "CCOC(=O)C1=C(C2CCc3nn(CCC(=O)O)cc3C2)NC(c2nccs2)=NC1c1ccc(F)cc1Br (single isomer, unassigned) [Compound 39c]", "measurementUnit": "nM", "comparisonOperator": "=", "EC50": 14.5}
{"compound": "CCOC(=O)C1=C(C2CCc3nn(CCC(=O)O)cc3C2)NC(c2nccs2)=NC1c1ccc(F)c(F)c1C (single isomer, unassigned) [Compound 35c]", "measurementUnit": "nM", "comparisonOperator": "<", "EC50": 4.6}
{"compound": "CCOC(=O)C1=C(C2CCc3nn(CCC(=O)O)cc3C2)NC(c2nccs2)=NC1c1ccc(F)c(F)c1Cl (single isomer, unassigned) [Compound 34c]", "measurementUnit": "nM", "comparisonOperator": "<", "EC50": 4.6}

* * *

Test: Cytotoxicity determination in HepG2.2.15 cells (CCK-8)
Assay type: cell-based
Details: human, HepG2.2.15 cells, HepG2.2.15 cells, 5,000 cells/well, 6 days of compound treatment, CCK-8 absorbance 450 nm, highest concentration 100 uM
Description: • HepG2.2.15 (the HepG2.2.15 cell line can be produced by transfection of the HepG2 cell line as described in Sells, Chen, and Acs 1987 (Proc. Natl. Acad. Sci. USA 84: 1005-1009), and the HepG2 cell line is available from ATCC® under number HB-8065™) […] EC50 and CC50 values are calculated by the GRAPHPAD PRISM software.
Each item that follows carries a reported CC50 at 6 days.

{"compound": "COC(=O)C1=C(C2CCc3nn(C(C)(C)CC(=O)O)cc3C2)NC(c2nccs2)=NC1c1ccc(F)c(F)c1Cl (single isomer, unassigned) [Compound 82b]", "CC50 at 6 days [µM]": 15.9}
{"compound": "CCOC(=O)C1=C(C2CCc3sc(CCC(=O)O)nc3C2)NC(c2nccs2)=NC1c1ccc(F)c(F)c1Cl (single isomer, unassigned) [Compound 59c]", "CC50 at 6 days [µM]": 4.1}
{"compound": "CCOC(=O)C1=C(C2CCc3nc(CCC(=O)O)oc3C2)NC(c2nccs2)=NC1c1ccc(F)c(F)c1Cl (single isomer, unassigned) [Compound 58b]", "CC50 at 6 days [µM]": 9.8}
{"compound": "CCOC(=O)C1=C(C2CCc3nn(CCC(=O)O)cc3C2)NC(c2nccs2)=NC1c1cccc(F)c1Br (single isomer, unassigned) [Compound 42b]", "CC50 at 6 days [µM]": 10.2}
{"compound": "CCOC(=O)C1=C(C2CCc3nn([C@H]4C[C@H](C(=O)O)C4)cc3C2)NC(c2nccs2)=NC1c1ccc(F)c(F)c1Cl (stereo partly drawn)", "CC50 at 6 days [µM]": 16}
{"compound": "CCOC(=O)C1=C(C2CCc3nn(CCC(=O)O)cc3C2)NC(c2nccs2)=NC1c1ccc(F)cc1Br (single isomer, unassigned) [Compound 39b]", "CC50 at 6 days [µM]": 13.1}
